TEST SUMMARY: in vitro
EXPERIMENTAL CONDITIONS: human, hela cells, % viability
EXPERIMENTAL ENDPOINT: viability at 28.5 h, 10 µM (%)
Could you give me the number in %? Just the number is fine.

Report measured viability at 28.5 h, 10 µM; entry is Cc1nc2n(c1C)CCN(c1ccc3nnc(C(F)(F)F)n3n1)C2 [CBK305815]
102

Write down viability at 28.5 h, 10 µM measured for item CNC(=O)C1(Cc2cccc(-c3cccs3)c2)CCN(C(=O)COc2ccccc2)CC1 [CBK285732]
95.5

For the compound CC1CC(N(C(=O)c2cccc(Br)c2)c2ccccc2)c2ccccc2N1 (stereo not drawn) [CBK262966] , give its reported viability at 28.5 h, 10 µM.
96.7

Give viability at 28.5 h, 10 µM for the following compound: Cc1cc(CNC(=O)COc2cc(Cl)ccc2Cl)c2ccccc2n1 [CBK269788]
89.1

Give me measured viability at 28.5 h, 10 µM, please, for this compound: CC(=O)N1CCC(c2cc(-c3cccc(F)c3)n(C)n2)CC1 [CBK282097]
101

Supply reported viability at 28.5 h, 10 µM belonging to this compound: Cc1nc(N)sc1-c1csc(Nc2ccc(Cl)cn2)n1 [CBK288532]
61.4

Find the measured viability at 28.5 h, 10 µM of CS(=O)(=O)CCC(C(=O)O)N1C(=O)c2ccc(Oc3ccc(Cl)cc3)cc2C1=O (stereo not drawn) [CBK266377] and report it.
92

Report measured viability at 28.5 h, 10 µM; entry is CN1CCN(C(=O)COc2ccc(S(=O)(=O)Nc3ccc(F)cc3)cc2)CC1 [CBK268454]
94.5

Input c1ccc2sc(SCCN3CCCCC3)nc2c1 [CBK016366] , output reported viability at 28.5 h, 10 µM.
109

Answer with the recorded viability at 28.5 h, 10 µM of O=C(Nc1cccc(C(=O)O)c1)/C(=C\c1ccc2c(c1)OCO2)NC(=O)c1ccccc1 [CBK263697] only.
113

Retrieve viability at 28.5 h, 10 µM measured for CC(=O)Nc1ccc(C(=O)N2CCCC2c2cccc(Cc3ccc(Cl)cc3)n2)cc1 (stereo not drawn) [CBK286144] and print it.
110

Specify reported viability at 28.5 h, 10 µM for the compound shown: C[C@H]1CN2C[C@H](O)CC2CN1Cc1cc(Br)cs1 (stereo partly drawn) [CBK285044]
103

Give viability at 28.5 h, 10 µM for O=[N+]([O-])c1ccc(CN2CCC(Oc3nccnc3OCc3ccc(Cl)c(Cl)c3)CC2)cc1 [CBK083107T]
104

Annotate the compound Cn1c(=O)c2c(ncn2CC(=O)Nc2ccccc2I)n(C)c1=O [CBK133275] with its measured viability at 28.5 h, 10 µM.
95.6

Entry CC(C)(C)c1cc(NC(=O)CSc2ccc(S(=O)(=O)N3CCCC3)cn2)n(-c2ccccc2)n1 [CBK297099] needs its viability at 28.5 h, 10 µM filled in; supply it.
89

Give the reported value of viability at 28.5 h, 10 µM for this record: O=C(c1c[nH]c(C(=O)N2CCN(c3ncccn3)CC2)c1)c1ccc(Cl)cc1Cl [CBK107418]
89.4

Fill in reported viability at 28.5 h, 10 µM for this entry: COc1ccc(-n2cc(-c3cccc(C(F)(F)F)c3)nn2)cc1OC [CBK112933]
94.9

// Input: Fc1ccc(Oc2nccnc2N2CCN(Cc3ccc(Cl)cc3)CC2)cc1 [CBK083010T] . Output its viability at 28.5 h, 10 µM only.
80.4
